tgt: Mcl-1/Bim interaction (recombinant human Mcl-1 residues 171-327) (Homo sapiens (Human), UniProt Q07820)
Sequence (Q07820 171-327): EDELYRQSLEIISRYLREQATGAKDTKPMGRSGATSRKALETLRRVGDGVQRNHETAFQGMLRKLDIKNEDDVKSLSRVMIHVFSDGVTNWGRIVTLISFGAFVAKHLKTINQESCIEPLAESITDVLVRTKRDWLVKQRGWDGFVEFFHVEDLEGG
protocol.details: Cell Free Mcl-1:Bim Affinity Assay (Mcl-1 HTRF)
Assay type: binding
test.parameters: TR-FRET, 0.1 nM Mcl-1(171-327), 0.05 nM biotin-Bim(51-76)
property.measured: IC50 (nM)

[a] C[C@@H]1[C@@H](C)CCC[C@@H](C(=O)N2CCOCC2)[C@@H]2CC[C@H]2CN2C[C@@]3(CCCc4cc(Cl)ccc43)COc3ccc(cc32)C(=O)NS1(=O)=O (single isomer, unassigned) [Example 8]
[b] COCCN1CCN(C[C@H]2CCC[C@H](C)[C@@H](C)S(=O)(=O)NC(=O)c3ccc4c(c3)N(C[C@@H]3CC[C@@H]23)C[C@@]2(CCCc3cc(Cl)ccc32)CO4)CC1 (single isomer, unassigned) [Example 39]
[c] CC[C@H](O)[C@H]1/C=C/C[C@H](C)[C@@H](C)S(=O)(=O)NC(=O)c2ccc3c(c2)N(C[C@@H]2CC[C@H]21)C[C@@]1(CCCc2cc(Cl)ccc21)CO3 (single isomer, unassigned) [Example 61]
[d] COC[C@H]1CCC[C@H](C)[C@@H](C)S(=O)(=O)NC(=O)c2ccc3c(c2)N(C[C@@H]2CC[C@@H]12)C[C@@]1(CCCc2cc(Cl)ccc21)CO3 (single isomer, unassigned) [Example 80]
Task item: Please list these compounds in decreasing order of IC50. Enter labels, ranked according to the request.
Reply: d, b, c, a
(d: 1.6 nM, b: 0.829 nM, c: 0.281 nM, a: 0.126 nM)
